- System: MS2 coat protein
- protocol text: apparent KD of MS2 coat protein; designed switch direction (-1 OFF switch, 1 ON switch): -1; higher = weaker reporter binding
- settings: input ligand: FMN 200 uM
Label MET when apparent KD of MS2 coat protein >= 0.7 µM; otherwise NOT MET.

input: Check if apparent KD of MS2 coat protein >= 0.7 µM (inclusive). Item: AAGUAGUCUGUGAGGAUAUUGGUGGAAUGACACAUUAAGAAGGUACAUGAGGAUCACCCAUGUGGGUAAAGACG [Brourd's EX4 #24] (Eterna round: R97, puzzle: Brourd's mod of Exclusion 4)
output: NOT MET

input: Check if apparent KD of MS2 coat protein >= 0.7 µM (inclusive). Item: ACAUGAGGAUCACCCAUGUCCGGUUGGUCUGUUCCGGCUGUCGAGGAUAUAGUCCGGUGUUCGCGCUAGAAGGCGAGGGCUGGA [Aenatbe mod 47] (Eterna round: R96, puzzle: Exclusion NG 3)
output: MET

input: Check if apparent KD of MS2 coat protein >= 0.7 µM (inclusive). Item: UCUAGUUGGUAAGGAUAUCCUACAUUGUUCUGGCCCGGGCAUGCUACAUGAGGAUCACCCAUGUGGGAGAAGGUGCGUCAUUGC [Design 21] (Eterna round: R96, puzzle: Exclusion NG 2)
output: NOT MET

input: Check if apparent KD of MS2 coat protein >= 0.7 µM (inclusive). Item: GCUGGUCGAGGAUAUACAUUCGUGCUUCGGCACGUAAGAUCACAUGAGGAUCACCCAUGUAGAAGGCGACCAGC [E2/5-A1] (Eterna round: R97, puzzle: Exclusion 2)
output: MET

Recorded values, source the supplement of paper PMC9170038.
